- ASSAY SUMMARY: Drug load capacity test of moulded tablets with glass beads (Spheriglass 2429)
- Type: physicochemical
- CONDITION CONTEXT: loaded with glass beads; solvent H2O
Consolidation time values for the compounds below.

Here is how some compounds turned out for Consolidation time.
# COMPOUND, Consolidation time
rows = [
    ("O=C([O-])CC(O)(CC(=O)[O-])C(=O)[O-].O=C([O-])CC(O)(CC(=O)[O-])C(=O)[O-].[Mg+2].[Mg+2].[Mg+2] [Mg Citrate anhydrate, anhydrous Mg Citrate]", ">10 min"),
    ("OC[C@H]1O[C@H](OC[C@H]2O[C@H](O[C@]3(CO)O[C@H](CO)[C@@H](O)[C@@H]3O)[C@H](O)[C@@H](O)[C@@H]2O)[C@H](O)[C@@H](O)[C@H]1O [Raffinose anhydrate]", "2 min"),
    ("C[C@H](O)C(=O)[O-].C[C@H](O)C(=O)[O-].[Ca+2] [Ca-Lactate anhydrate, anhydrous Ca-Lactate]", "1 to 2 min"),
]

Moving on to the next compound.
query: // lookup Consolidation time for OC[C@H]1OC(O)[C@H](O)[C@@H](O)[C@@H]1O (stereo partly shown) [Glucose anhydrate]
result: >10 min
